I'd be grateful if you could share measured screen value for these entries.
B1: SH3BP2 peptide 408-423 (SH3 domain-binding protein 2), 16-mer library wild type / TNKS ANK (TNKS 12 ANK repeats, residues 174-649) (parent)
chain 1: PQLPHLQRSPPDGQSF
chain 2: TGVPAVSGALRELLEACRNGDVSRVKRLVDAANVNAKDMAGRKSSPLHFAAGFGRKDVVEHLLQMGANVHARDDGGLIPLHNACSFGHAEVVSLLLCQGADPNARDNWNYTPLHEAAIKGKIDVCIVLLQHGADPNIRNTDGKSALDLADPSAKAVLTGEYKKDELLEAARSGNEEKLMALLTPLNVNCHASDGRKSTPLHLAAGYNRVRIVQLLLQHGADVHAKDKGGLVPLHNACSYGHYEVTELLLKHGACVNAMDLWQFTPLHEAASKNRVEVCSLLLSHGADPTLVNCHGKSAVDMAPTPELRERLTYEFKGHSLLQAAREADLAKVKKTLALEIINFKQPQSHETALHCAVASLHPKRKQVTELLLRKGANVNEKNKDFMTPLHVAAERAHNDVMEVLHKHGAKMNALDTLGQTALHRAALAGHLQTCRLLLSYGSDPSIISLQGFTAAQMGNEAVQQILSESTPIRTSD

- Variants of: B1
- experimental protocol: proteomic peptide phage display deep mutational scan (ProP-PD DMS): M13 P8 16-mer library selected against immobilised GST-tagged bait for four days (rounds), NGS of the eluted pools per day and pseudo-replica
- condition notes: with TNKS ANK (TNKS 12 ANK repeats, residues 174-649); bait immobilised on MaxiSorp plates (10 µg), library pre-cleared on GST, 2 h binding at 4 °C, five washes; one round per day, days 1-4; value from days 2 and 3; keep out of graded; scale: average fractional NGS count over selection days 2 and 3
Answers are plain numbers.

>>> value_observed("chain 1 H5E")
"9.9e-05"

For each of the variants below, note its screen value.
1. chain 1 S9G
2. chain 1 D12H
3. chain 1 P11M

A.
1: 7.17e-05; 2: 5.06e-05; 3: 0

Would you mind giving screen value for every variant in the list below?
1. chain 1 P11S
2. chain 1 F16K
3. chain 1 H5M
4. chain 1 P11L

A.
2.19e-05
4.17e-05
6.6e-05
0
